- System: BJ (human fibroblast) cells
- Assay Procedure: Cytotoxicity (MTT) against BJ cell line
- Format: cell-based
- Run Parameters: CC50 BJ cell line / IC50 L. tropica
Measurement Kind: L. tropica SI (CC50/ IC50)

CC12CC3OC(=O)C1COC14OC5(C2C1=O)C(O)(CCC1C4CC2OC24CC=CC(=O)C14C)C(=O)OC35C (stereo not shown) :: 1.48
C[C@]12C(=O)C=CCC1=CC[C@@H]1[C@@H]2CC[C@]2(O)C(=O)O[C@@]3(C)[C@H]4C[C@]5(C)[C@@H](CO[C@@]16O[C@@]32[C@H]5C6=O)C(=O)O4 :: 0.8

What L. tropica SI (CC50/ IC50) value was documented for this molecule, C[C@@H]1[C@H](O)[C@@H](C)/C=C/C=C/C=C/C=C/C=C/C=C/C=C/[C@H](O[C@@H]2O[C@H](C)[C@@H](O)[C@H](N)[C@@H]2O)C[C@@H]2O[C@](O)(C[C@@H](O)C[C@@H](O)[C@H](O)CC[C@@H](O)C[C@@H](O)CC(=O)O[C@H]1C)C[C@H](O)[C@H]2C(=O)O [Amphotericin B, reference compound] ?
4.69

Same question, CC12CC3OC(=O)C1COC14OC5(C2C1=O)C(O)(CCC1C4CC(O)C2(Cl)CC=CC(=O)C12C)C(=O)OC35C (stereo not shown) this time
1.08

###

- Tested on: L. major promastigotes
- Assay Procedure: Promastigote growth inhibition assay (MTT), L. major
- Type: cell-based, Leishmania major
- Run Parameters: pure compounds, standard drugs; promastigotes, 72 h
Measurement Kind: L. major IC50 (μM± SD)

C[C@@]12C[C@H]3OC(=O)[C@@H]1CO[C@@]14O[C@]5([C@H]2C1=O)[C@@](O)(CC[C@H]1[C@H]4C[C@@H](O)[C@@]2(O)CC=CC(=O)[C@]12C)C(=O)O[C@@]35C :: inactive
CCOC12CC=CC(=O)C1(C)C1CCC3(O)C(=O)OC4(C)C5CC6(C)C(COC7(OC34C6C7=O)C1CC2O)C(=O)O5 (stereo not shown) :: Inactive
CC12CC3OC(=O)C1COC14OC5(C2C1=O)C(O)(CC(O)C1C4CC(O)C24C=CC(OO2)C(=O)C14C)C(=O)OC35C (stereo not shown) :: inactive
CC12C(=O)C=CC=C1C(O)CC1C(=O)C3=NCC4C(=O)OC5CC4(C)C3C3(O)C(O)(CCC12)C(=O)OC53C (stereo not shown) :: Inactive

###

- Test system: L. tropica promastigotes
- Assay Procedure: Promastigote growth inhibition assay (MTT), L. tropica clinical isolates
- Assay type: cell-based, Leishmania tropica
- Run Parameters: Leishmania tropica; pure compounds, standard drugs; promastigotes, clinical isolate, 72 h; read-out: L. tropica IC50 (μM± SD)
Field: label. Allowed values: 1 (IC50 < 10 µM) or -1 (IC50 >= 10 µM).

Sample answers from the record:
C[C@@H]1[C@H](O)[C@@H](C)/C=C/C=C/C=C/C=C/C=C/C=C/C=C/[C@H](O[C@@H]2O[C@H](C)[C@@H](O)[C@H](N)[C@@H]2O)C[C@@H]2O[C@](O)(C[C@@H](O)C[C@@H](O)[C@H](O)CC[C@@H](O)C[C@@H](O)CC(=O)O[C@H]1C)C[C@H](O)[C@H]2C(=O)O [Amphotericin B, reference compound] :: 1
C=C1C(=O)OC2CC1(C)C1C(=O)C3(O)OC14C(O)(CCC1C3CC3OC35CC=CC(=O)C15C)C(=O)OC24C (centres unmarked) :: -1
CCCCCCCCCCCCCCCCOP(=O)([O-])OCC[N+](C)(C)C [Miltefosine, reference compound] :: -1
CC12CC3OC(=O)C1COC14OC5(C2C1=O)C(O)(CCC1C4CC(O)C2(Cl)CC=CC(=O)C12C)C(=O)OC35C (centres unmarked) :: 1

Now turn to the next compound.
Answer whether the compound N=C(N)c1ccc(OCCCCCOc2ccc(C(=N)N)cc2)cc1 [Pentamidine, reference compound] has IC50 strictly less than 10 µM
-1

###

- Test system: MIL-resistant L. tropica promastigotes
- Assay Procedure: Growth inhibition assay (MTT) against MIL-resistant line
- Format: cell-based, Leishmania tropica
- Run Parameters: miltefosine-unresponsive strain, promastigotes, 72 h
Measurement Kind: MIL Resistant L. tropica IC50 (μM± SD)

Some solved entries appear below for comparison.
C=C1C(=O)OC2CC1(C)C1C(=O)C3(O)OC14C(O)(CCC1C3CC3OC35CC=CC(=O)C15C)C(=O)OC24C (stereo not drawn) [Compound 6, 5β, 6β-epoxyphysalin C] :: inactive
CC12CC3OC(=O)C1COC14OC5(C2C1=O)C(O)(CC(O)C1C4CC(O)C24C=CC(OO2)C(=O)C14C)C(=O)OC35C (stereo not drawn) [Compound 8, Physalin K] :: inactive
CC12CC3OC(=O)C1COC14OC5(C2C1=O)C(O)(CCC1C4CC2OC24CC=CC(=O)C14C)C(=O)OC35C (stereo not drawn) [Compound 3, 5β, 6β-epoxyphysalin B] :: inactive
C[C@]12C(=O)C=CCC1=CC[C@@H]1[C@@H]2CC[C@]2(O)C(=O)O[C@@]3(C)[C@H]4C[C@]5(C)[C@@H](CO[C@@]16O[C@@]32[C@H]5C6=O)C(=O)O4 [Compound 2, Physalin B] :: inactive
CC12CC3OC(=O)C1COC14OC5(C2C1=O)C(O)(CCC1C4CC(O)C2(Cl)CC=CC(=O)C12C)C(=O)OC35C (stereo not drawn) [Compound 5, Physalin H] :: inactive

Can you share its MIL Resistant L. tropica IC50 (μM± SD)? I mean this molecule: C[C@@]12C[C@H]3OC(=O)[C@@H]1CO[C@@]14O[C@]5([C@H]2C1=O)[C@@](O)(CC[C@H]1[C@H]4C[C@@H](O)[C@@]2(O)CC=CC(=O)[C@]12C)C(=O)O[C@@]35C [Compound 9, Physalin D]
inactive

// provenance: paper PMC9704608
